Test system: Wolbachia pipientis
ASSAY_TEXT: Anti-Wolbachia Cell-Based Screen
Format: functional
Design: scale not given: in the data most compounds retested in dose-response had high values
MEASUREMENT_CONDITIONS: 5 µM
Hit rate of the full screen: of about 48,000 compounds, about 13,000 (27%) showed an effect of 50% or more. The list shows a part of the results.
Below: a set of entries, each annotated with reported Percent Effect.
The answer is to be given in %; state only the numeric part.

O=C(NCc1cn2c(n1)CN(Cc1ccccn1)CC2)C1CCC1.O=C(O)C(F)(F)F.O=C(O)C(F)(F)F    -6.874

Form field Percent Effect, entry CCN(Cc1cccc(F)c1)c1ccc2nnnn2n1 : 20.24

Form field Percent Effect, entry CCS(=O)(=O)c1ncc(CN2CCCC2)n1CCc1ccccc1 : 1.853

Form field Percent Effect, entry Cc1cc(N2CCCN(C(=O)Cc3csc(C)n3)CC2)ccn1 : -22.63

Form field Percent Effect, entry O=C(Nc1ccccc1CCc1ccccn1)NC1CCOCC1 : -7.389

Form field Percent Effect, entry CCn1cnnc1CNC(=O)N(C)Cc1cccc(OC(F)F)c1 : 110.2

Form field Percent Effect, entry CCn1cnnc1CNC(=O)CCC(=O)c1ccc2c(c1)OCCO2 : 5.212

Form field Percent Effect, entry COCC1Cn2nnc(-c3cnn(C)c3)c2CN1Cc1cccs1.O=C(O)C(F)(F)F (stereo not given) : 105.4

Form field Percent Effect, entry CCn1cnnc1CNC(=O)N(C)Cc1ccc2c(c1)OCO2 : 127.8

Form field Percent Effect, entry COCC1CN(Cc2ccc(C)o2)Cc2cn(C)nc21.O=C(O)C(F)(F)F.O=C(O)C(F)(F)F (stereo not given) : -19.49

Form field Percent Effect, entry CCn1cc(CN(C)S(=O)(=O)c2ccc(NC(C)=O)cc2)cn1 : 5.791

Form field Percent Effect, entry Cc1cc(N2CCN(C(=O)CCc3scnc3C)CC2)cc(C)n1 : 13.55

The measured values listed here are drawn from ChEMBL document CHEMBL3988442.
